# collection of IC50 values tested on Phosphodiesterase 10A (PDE10A) (Homo sapiens (Human))
# Sequence (Q9Y233 whole entry, species assumed): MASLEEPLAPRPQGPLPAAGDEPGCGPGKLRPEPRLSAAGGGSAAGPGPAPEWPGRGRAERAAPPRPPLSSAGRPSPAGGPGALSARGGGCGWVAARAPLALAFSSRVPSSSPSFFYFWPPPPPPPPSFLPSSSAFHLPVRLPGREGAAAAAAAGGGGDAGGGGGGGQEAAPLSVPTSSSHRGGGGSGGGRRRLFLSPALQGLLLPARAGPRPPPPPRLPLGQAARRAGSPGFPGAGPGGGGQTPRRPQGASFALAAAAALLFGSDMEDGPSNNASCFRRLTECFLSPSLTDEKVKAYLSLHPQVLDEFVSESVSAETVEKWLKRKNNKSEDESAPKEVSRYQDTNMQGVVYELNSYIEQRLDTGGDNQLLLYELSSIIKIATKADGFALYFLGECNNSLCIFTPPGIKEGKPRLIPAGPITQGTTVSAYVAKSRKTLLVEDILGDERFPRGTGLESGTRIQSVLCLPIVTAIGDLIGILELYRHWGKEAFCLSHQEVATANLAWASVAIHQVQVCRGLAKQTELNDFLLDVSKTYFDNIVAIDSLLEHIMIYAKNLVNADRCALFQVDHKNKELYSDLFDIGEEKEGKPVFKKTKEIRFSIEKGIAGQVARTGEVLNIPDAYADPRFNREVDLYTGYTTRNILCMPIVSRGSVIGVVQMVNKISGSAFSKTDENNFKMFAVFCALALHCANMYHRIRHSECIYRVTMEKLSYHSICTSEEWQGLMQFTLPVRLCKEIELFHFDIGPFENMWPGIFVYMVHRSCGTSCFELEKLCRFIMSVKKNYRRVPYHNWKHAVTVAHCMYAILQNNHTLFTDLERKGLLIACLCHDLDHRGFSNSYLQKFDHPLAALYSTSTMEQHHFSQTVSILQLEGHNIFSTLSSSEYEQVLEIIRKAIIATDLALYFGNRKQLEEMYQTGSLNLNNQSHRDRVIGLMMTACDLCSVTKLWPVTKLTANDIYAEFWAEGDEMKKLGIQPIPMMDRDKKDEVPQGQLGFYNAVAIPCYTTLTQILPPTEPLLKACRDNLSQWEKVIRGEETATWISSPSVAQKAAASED
Numeric only. Scale: nM

Request: Write down the reported IC50 of Cc1ncsc1CNc1nc(-n2cc(-c3cnccn3)cn2)nc(N)c1Br [Example 29] , test system: Phosphodiesterase 10A (PDE10A) (Homo sapiens (Human)).
Response: 16.5

Request: Lab note: need IC50 for Cc1ncsc1CNc1nc(-n2ncc3ccncc32)nc(N)c1Br [Example 34] on Phosphodiesterase 10A (PDE10A) (Homo sapiens (Human)), anyone have it?
Response: 0.4

Request: Give recorded IC50 with Phosphodiesterase 10A (PDE10A) (Homo sapiens (Human)) for the following compound: Nc1nc(-n2ncc3ccccc32)nc(NCc2cncs2)c1Br [Example 9]
Response: 1.6
